B1: LINE1-mini (parent)
chain: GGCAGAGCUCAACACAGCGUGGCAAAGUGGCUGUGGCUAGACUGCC

# Variants of: B1
# PROTOCOL_SUMMARY: self-cleavage, relative activity (ratio to wild type); higher = more cleavage; in vitro, sequencing; the parent is a self-cleaving ribozyme
Assign Fulfilled whenever self-cleavage does not fall below 0.04; assign Not fulfilled whenever it does.

Previously resolved entries follow.
input: Threshold query (self-cleavage >= 0.04) on C13U C37A
output: Fulfilled

input: Test whether the variant C3A C15G records self-cleavage of 0.04 or higher.
output: Fulfilled

Further cases:
input: Check the entry G27C C45A : does self-cleavage equal or exceed 0.04?
output: Fulfilled

input: Kindly determine if self-cleavage recorded for C13G U34G is above or exactly 0.04.
output: Not fulfilled
